The entries below are paired with their reported OD450 at 1 nM.
- target: T1, human MSLN-R3-3 polypeptide (human)
- T1 construct: also called human MSLN-R3-3 protein; hMSLN-R3-3
- test description: ELISA, coated MSLN-R3-3;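 further: chimeric antibodies in serial dilution bound to plate-coated antigen for 2 h at 37 °C, with a negative control antibody alongside, and TMB colour development stopped with HCl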
Form entry: value (OD450) — number only.

Look up OD450 at 1 nM for this binder: S009-F1.25.10 (antibody, human IgG1, kappa, V domains shown, Human-murine chimeric antibody, human IgG1/kappa constant regions) VH: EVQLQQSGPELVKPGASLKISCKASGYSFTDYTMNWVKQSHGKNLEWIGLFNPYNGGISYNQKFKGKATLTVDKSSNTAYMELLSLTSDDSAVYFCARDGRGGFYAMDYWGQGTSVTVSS VL: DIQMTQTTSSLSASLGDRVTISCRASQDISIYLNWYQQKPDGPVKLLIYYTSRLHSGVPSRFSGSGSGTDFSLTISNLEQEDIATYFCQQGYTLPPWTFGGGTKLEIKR 2.17

Value lookup for OD450 at 1 nM; key = S009-F1.56.1 (antibody, human IgG1, kappa, V domains shown, Human-murine chimeric antibody, human IgG1/kappa constant regions) VH: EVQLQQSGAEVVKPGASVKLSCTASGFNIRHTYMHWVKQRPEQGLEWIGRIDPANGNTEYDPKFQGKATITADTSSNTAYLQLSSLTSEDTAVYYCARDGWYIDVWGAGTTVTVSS VL: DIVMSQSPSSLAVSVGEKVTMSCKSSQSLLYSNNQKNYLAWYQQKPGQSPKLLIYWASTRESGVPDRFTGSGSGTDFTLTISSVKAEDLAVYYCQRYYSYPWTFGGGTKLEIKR 0.07

Sample S009-F1.62.9 (antibody, human IgG1, kappa, V domains shown, Human-murine chimeric antibody, human IgG1/kappa constant regions) VH: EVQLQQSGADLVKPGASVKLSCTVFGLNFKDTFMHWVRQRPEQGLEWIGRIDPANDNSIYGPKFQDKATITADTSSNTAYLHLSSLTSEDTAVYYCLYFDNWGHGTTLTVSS VL: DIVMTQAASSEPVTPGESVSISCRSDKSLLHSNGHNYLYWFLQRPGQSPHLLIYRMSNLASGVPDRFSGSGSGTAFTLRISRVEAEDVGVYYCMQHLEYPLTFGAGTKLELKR — what was its OD450 at 1 nM? 0.06
